system: c-Src; test: phosphorylation enrichment, bacterial display (enrichment ratio); higher = better substrate or ligand; peptides without Tyr show the background;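 further: 11-residue human phosphosite peptides and single-mutation variants displayed on the E. coli surface, counted by deep sequencing, each peptide's frequency after selection divided by its frequency in the unselected input library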;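 further: frequency after pTyr selection over input frequency; kinase dosed for 20-30% of maximal phosphorylation in three min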
Respond with fulfilled for phosphorylation enrichment values of 0.5 and above, not fulfilled for values below.

**Query** Kindly determine if phosphorylation enrichment recorded for QRASDYFSQQM [GBP6_Y333_A331S_YF] is above or exactly 0.5.
**Result** fulfilled

**Query** Kindly determine if phosphorylation enrichment recorded for NRVEIYEKTVE [CYFIP1_Y108] is above or exactly 0.5.
**Result** fulfilled

**Query** Kindly determine if phosphorylation enrichment recorded for DAVAVYDGKIS [SH2D1A_Y7_H8D] is above or exactly 0.5.
**Result** fulfilled

**Query** Kindly determine if phosphorylation enrichment recorded for MILSAYALGGL [CPS1_Y590_R587L] is above or exactly 0.5.
**Result** fulfilled

**Query** Kindly determine if phosphorylation enrichment recorded for FGSLLYKFAFK [FANCD2_Y458_YF] is above or exactly 0.5.
**Result** not fulfilled

**Query** Kindly determine if phosphorylation enrichment recorded for LRYDSYSSYCN [SLC20A2_Y433] is above or exactly 0.5.
**Result** fulfilled

**Query** Kindly determine if phosphorylation enrichment recorded for QDGYSYPSRQM [LDLR_Y847] is above or exactly 0.5.
**Result** fulfilled

**Query** Kindly determine if phosphorylation enrichment recorded for QVMDGYPMPIG [MMP14_Y353] is above or exactly 0.5.
**Result** fulfilled

**Query** Kindly determine if phosphorylation enrichment recorded for FEEDSYVKRSQ [RET_Y905_YF] is above or exactly 0.5.
**Result** not fulfilled

**Query** Kindly determine if phosphorylation enrichment recorded for ADGLEYSRTGL [MMUT_Y287] is above or exactly 0.5.
**Result** fulfilled

**Query** Kindly determine if phosphorylation enrichment recorded for PTDSVYVMPTV [MYO7A_Y1668] is above or exactly 0.5.
**Result** fulfilled

**Query** Kindly determine if phosphorylation enrichment recorded for EILLSYLRTGF [TGM1_Y365_YF] is above or exactly 0.5.
**Result** not fulfilled

**Query** Kindly determine if phosphorylation enrichment recorded for RFGKVYKGHLF [ROR2_Y488] is above or exactly 0.5.
**Result** fulfilled

**Query** Kindly determine if phosphorylation enrichment recorded for ASYGPNTRVQS [FOXL2_Y258_Y258N] is above or exactly 0.5.
**Result** not fulfilled

**Query** Kindly determine if phosphorylation enrichment recorded for RHPREYQDLLN [DES_Y388_L385P] is above or exactly 0.5.
**Result** not fulfilled

**Query** Kindly determine if phosphorylation enrichment recorded for ENKGVYVPMSG [IVD_Y277_L279P] is above or exactly 0.5.
**Result** not fulfilled

**Query** Kindly determine if phosphorylation enrichment recorded for FTHSDYQFSQR [PKP2_Y166_YF] is above or exactly 0.5.
**Result** not fulfilled

**Query** Kindly determine if phosphorylation enrichment recorded for KIVQDYLEKFY [MMP8_Y36_T32I] is above or exactly 0.5.
**Result** not fulfilled

**Query** Kindly determine if phosphorylation enrichment recorded for RLLREYQELMN [KRT75_Y434] is above or exactly 0.5.
**Result** not fulfilled

**Query** Kindly determine if phosphorylation enrichment recorded for YRRITYYNWRH [PDE6B_Y556_H557Y] is above or exactly 0.5.
**Result** not fulfilled
